Source listed as the NIST ThermoML archive (doi:10.1016/j.jct.2016.07.005).

- experiment: xn = mol fraction of the nth substance listed
- details: 318.15 K; 100 kPa; Liquid; Vibrating tube method; x1 = 0.1
measurementKind: mass density (kg/m3)
Record the value in kg/m3, omitting the unit from your answer.

CN1CCC[C@H]1c1cccnc1 [(-)-3-(N-methylpyrrolidino)pyridine] + CCC(C)O: 820.559
CN1CCC[C@H]1c1cccnc1 [(-)-3-(N-methylpyrrolidino)pyridine] + CCCCO: 825.24
CN1CCC[C@H]1c1cccnc1 [(-)-3-(N-methylpyrrolidino)pyridine] + CC(O)CO: 1015.29

Now for the compound whose mass density we want.
In: Field request: mass density | item: CN1CCC[C@H]1c1cccnc1 [(-)-3-(N-methylpyrrolidino)pyridine] + OCCCO
Out: 1032.27

* * *

Attribute: mass density
- experiment: xn = mol fraction of the nth substance listed
- details: 323.15 K; 100 kPa; Liquid; Vibrating tube method; x1 = 0.5
± gives the expanded uncertainty stated by the source.
Give the number first and the unit second.

CN1CCC[C@H]1c1cccnc1 [(-)-3-(N-methylpyrrolidino)pyridine] + OCCCO: 1008.9 ± 1.1 kg/m3
CN1CCC[C@H]1c1cccnc1 [(-)-3-(N-methylpyrrolidino)pyridine] + CCCCO: 918.759 ± 1 kg/m3
CN1CCC[C@H]1c1cccnc1 [(-)-3-(N-methylpyrrolidino)pyridine] + CCC(C)O: 916.374 ± 1 kg/m3

In: Please look up its mass density: CN1CCC[C@H]1c1cccnc1 [(-)-3-(N-methylpyrrolidino)pyridine] + CC(O)CO
Out: 999.45 ± 1 kg/m3

* * *

- experiment: xn = mol fraction of the nth substance listed
- details: 313.15 K; 100 kPa; Liquid; Vibrating tube method; x1 = 0.3
measurementKind: mass density (kg/m3)
Give the value in kg/m3 but do not write kg/m3 after it.

CN1CCC[C@H]1c1cccnc1 [(-)-3-(N-methylpyrrolidino)pyridine] + CCCCO: 885.026
CN1CCC[C@H]1c1cccnc1 [(-)-3-(N-methylpyrrolidino)pyridine] + OCCCO: 1026.23

In: Consider the compound shown here: CN1CCC[C@H]1c1cccnc1 [(-)-3-(N-methylpyrrolidino)pyridine] + CCC(C)O What is its recorded mass density?
Out: 881.53

In: Also need CN1CCC[C@H]1c1cccnc1 [(-)-3-(N-methylpyrrolidino)pyridine] + CC(O)CO , thanks.
Out: 1013.89

* * *

- experiment: refractive index (Na D-line) (dimensionless); xn = mol fraction of the nth substance listed
- details: 323.15 K; 100 kPa; Liquid; Standard Abbe refractometry; x1 = 0.5
measurementKind: refractive index
No unit in the answer, only the number.

CN1CCC[C@H]1c1cccnc1 [(-)-3-(N-methylpyrrolidino)pyridine] + CC(O)CO: 1.48665
CN1CCC[C@H]1c1cccnc1 [(-)-3-(N-methylpyrrolidino)pyridine] + OCCCO: 1.49147
CN1CCC[C@H]1c1cccnc1 [(-)-3-(N-methylpyrrolidino)pyridine] + CCCCO: 1.46958

In: Value lookup for refractive index; key = CN1CCC[C@H]1c1cccnc1 [(-)-3-(N-methylpyrrolidino)pyridine] + CCC(C)O
Out: 1.46747

* * *

- experiment: refractive index (Na D-line) (dimensionless); xn = mol fraction of the nth substance listed
- details: 293.15 K; 100 kPa; Liquid; Standard Abbe refractometry; x1 = 0.3
measurementKind: refractive index
// no unit, no text: just the number

In: Name the reported refractive index value associated with the molecule CN1CCC[C@H]1c1cccnc1 [(-)-3-(N-methylpyrrolidino)pyridine] + CC(O)CO
Out: 1.48003

In: CN1CCC[C@H]1c1cccnc1 [(-)-3-(N-methylpyrrolidino)pyridine] + CCC(C)O ?
Out: 1.4542

In: Another molecule: CN1CCC[C@H]1c1cccnc1 [(-)-3-(N-methylpyrrolidino)pyridine] + OCCCO
Out: 1.48522

In: Also need CN1CCC[C@H]1c1cccnc1 [(-)-3-(N-methylpyrrolidino)pyridine] + CCCCO , thanks.
Out: 1.45673
